Please respond with reported Dmax for every item in the list.
Biological target: CK1α (Homo sapiens, UniProt P48729+Q96SW2)
Sequence (P48729 whole entry): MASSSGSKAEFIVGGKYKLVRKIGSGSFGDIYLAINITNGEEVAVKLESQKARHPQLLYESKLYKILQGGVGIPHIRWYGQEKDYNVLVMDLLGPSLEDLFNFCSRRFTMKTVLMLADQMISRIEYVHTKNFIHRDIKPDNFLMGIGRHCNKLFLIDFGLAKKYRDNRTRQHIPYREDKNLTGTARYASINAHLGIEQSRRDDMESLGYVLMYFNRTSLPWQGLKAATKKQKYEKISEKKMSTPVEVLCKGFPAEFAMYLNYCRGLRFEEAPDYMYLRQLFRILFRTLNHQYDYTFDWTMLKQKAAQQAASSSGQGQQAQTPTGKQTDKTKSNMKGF
Sequence (Q96SW2 whole entry): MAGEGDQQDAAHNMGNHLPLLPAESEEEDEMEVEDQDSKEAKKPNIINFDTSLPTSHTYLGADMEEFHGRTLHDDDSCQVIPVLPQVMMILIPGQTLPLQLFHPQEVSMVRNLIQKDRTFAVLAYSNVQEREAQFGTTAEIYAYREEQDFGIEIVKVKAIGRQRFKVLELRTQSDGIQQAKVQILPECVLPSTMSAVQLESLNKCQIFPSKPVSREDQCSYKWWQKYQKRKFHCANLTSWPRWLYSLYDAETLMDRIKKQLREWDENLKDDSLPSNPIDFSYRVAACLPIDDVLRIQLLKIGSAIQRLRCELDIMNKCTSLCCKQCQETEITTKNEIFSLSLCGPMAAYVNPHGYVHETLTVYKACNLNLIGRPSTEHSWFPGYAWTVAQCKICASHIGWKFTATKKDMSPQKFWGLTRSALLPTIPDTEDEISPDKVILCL
Sequence (Q16531 whole entry partner): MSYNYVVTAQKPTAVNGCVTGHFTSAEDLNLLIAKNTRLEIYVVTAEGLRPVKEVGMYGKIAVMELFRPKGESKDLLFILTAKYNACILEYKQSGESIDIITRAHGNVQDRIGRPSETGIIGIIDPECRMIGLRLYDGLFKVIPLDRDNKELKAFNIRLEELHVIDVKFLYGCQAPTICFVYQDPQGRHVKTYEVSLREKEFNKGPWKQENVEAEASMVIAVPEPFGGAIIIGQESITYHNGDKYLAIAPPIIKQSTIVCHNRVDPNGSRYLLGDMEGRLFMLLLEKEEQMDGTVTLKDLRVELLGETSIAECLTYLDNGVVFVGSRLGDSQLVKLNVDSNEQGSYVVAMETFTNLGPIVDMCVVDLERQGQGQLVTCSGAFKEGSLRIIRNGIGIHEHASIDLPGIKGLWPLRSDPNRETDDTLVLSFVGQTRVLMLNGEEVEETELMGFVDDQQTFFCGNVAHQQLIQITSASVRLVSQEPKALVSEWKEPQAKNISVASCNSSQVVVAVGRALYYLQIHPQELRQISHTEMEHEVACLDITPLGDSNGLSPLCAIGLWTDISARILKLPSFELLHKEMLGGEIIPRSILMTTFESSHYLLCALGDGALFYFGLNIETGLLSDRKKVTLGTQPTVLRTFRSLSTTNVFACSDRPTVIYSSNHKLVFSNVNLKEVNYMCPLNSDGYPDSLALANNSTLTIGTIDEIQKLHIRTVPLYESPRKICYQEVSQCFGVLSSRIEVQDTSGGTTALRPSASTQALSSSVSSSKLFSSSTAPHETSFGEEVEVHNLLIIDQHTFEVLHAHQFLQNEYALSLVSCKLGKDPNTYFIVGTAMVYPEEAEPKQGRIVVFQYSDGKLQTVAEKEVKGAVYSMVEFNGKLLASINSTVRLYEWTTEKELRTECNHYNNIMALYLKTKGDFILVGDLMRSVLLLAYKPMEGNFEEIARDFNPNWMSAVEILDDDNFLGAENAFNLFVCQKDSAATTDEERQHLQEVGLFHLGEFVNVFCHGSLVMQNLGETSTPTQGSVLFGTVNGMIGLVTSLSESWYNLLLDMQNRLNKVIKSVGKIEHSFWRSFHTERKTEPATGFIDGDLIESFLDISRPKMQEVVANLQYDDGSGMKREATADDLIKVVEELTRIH
Assay: CK1α degradation, Jess assay in MV-4-11 cells
Assay type: cell-based
Set-up: CK1α levels were determined in MV-4-11 cells using Jess (Protein Simple); host or cells: MV-4-11; dose or concentration left out as unconfirmed
Details: MV4-11, % reduction of CK1α compared to DMSO, MV-4-11 cells for 16 hours, normalized to β-actin, read-out: CK1α degradation classification
Counter-ions that a name gives are not always drawn.

Given the molecule CCCCCCN(CCCCN)c1cccc2c1CN(C1CCC(=O)NC1=O)C2=O (centres unmarked) , write its reported Dmax. > 75%

Given the molecule CCCCN(C/C=C\CN)c1cccc2c1CN(C1CCC(=O)NC1=O)C2=O (centres unmarked) , write its reported Dmax. > 75%

Given the molecule CCCCCN(CCCCN)c1cccc2c1CN(C1CCC(=O)NC1=O)C2=O (centres unmarked) , write its reported Dmax. > 75%

Given the molecule N[C@H]1CC[C@H](N(CCCc2ccccc2)c2cccc3c2CN(C2CCC(=O)NC2=O)C3=O)CC1 (some centres unmarked) [Compound 251, hydrochloride] , write its reported Dmax. > 75%

Given the molecule NCCCCN(CCCCCCO)c1cccc2c1CN(C1CCC(=O)NC1=O)C2=O (centres unmarked) , write its reported Dmax. 50 to 7500%

Given the molecule NC[C@H]1CC[C@@H](N(CCC2CC2)c2cccc3c2CN(C2CCC(=O)NC2=O)C3=O)CC1 (some centres unmarked) , write its reported Dmax. > 75%

Given the molecule CCCCN(CCCCN)c1cccc2c1CN(C1CCC(=O)NC1=O)C2=O (centres unmarked) , write its reported Dmax. > 75%

Given the molecule CCCCCN(CCCCNC(C)=O)c1cccc2c1CN(C1CCC(=O)NC1=O)C2=O (centres unmarked) , write its reported Dmax. 50 to 7500%

Given the molecule NC[C@H]1CC[C@@H](N(CCCC2CCOCC2)c2cccc3c2CN(C2CCC(=O)NC2=O)C3=O)CC1 (some centres unmarked) , write its reported Dmax. > 75%

Given the molecule CC#CCN(CCCCN)c1cccc2c1CN(C1CCC(=O)NC1=O)C2=O (centres unmarked) , write its reported Dmax. > 75%

Given the molecule C/C=C/CN(CCCCN)c1cccc2c1CN(C1CCC(=O)NC1=O)C2=O (centres unmarked) , write its reported Dmax. > 75%

Given the molecule CCCCCN(c1cccc2c1CN(C1CCC(=O)NC1=O)C2=O)[C@@H]1CC[C@H](N)C1 (some centres unmarked) , write its reported Dmax. > 75%

Given the molecule CCCN(CCCCN)c1cccc2c1CN(C1CCC(=O)NC1=O)C2=O (centres unmarked) , write its reported Dmax. > 75%

Given the molecule CCCCCN(c1cccc2c1CN(C1CCC(=O)NC1=O)C2=O)[C@H]1CC[C@@H](CN)CC1 (some centres unmarked) [Compound 89, hydrochloride] , write its reported Dmax. > 75%

Given the molecule CCCCN(CC#CCN)c1cccc2c1CN(C1CCC(=O)NC1=O)C2=O (centres unmarked) , write its reported Dmax. 50 to 7500%

Given the molecule NCCCCN(CCCCCO)c1cccc2c1CN(C1CCC(=O)NC1=O)C2=O (centres unmarked) , write its reported Dmax. 50 to 7500%

Given the molecule CCCCCN(c1cccc2c1CN(C1CCC(=O)NC1=O)C2=O)[C@H]1CC[C@@H](N)CC1 (some centres unmarked) [Compound 87, hydrochloride] , write its reported Dmax. > 75%

Given the molecule CCCN(CCCCNC(C)=O)c1cccc2c1CN(C1CCC(=O)NC1=O)C2=O (centres unmarked) , write its reported Dmax. > 75%

Given the molecule CCCCCN(c1cccc2c1CN(C1CCC(=O)NC1=O)C2=O)[C@H]1CC[C@H](CN)CC1 (some centres unmarked) [Compound 90, hydrochloride] , write its reported Dmax. > 75%

Given the molecule CCCN(CCCCCN)c1cccc2c1CN(C1CCC(=O)NC1=O)C2=O (centres unmarked) , write its reported Dmax. > 75%

Given the molecule NCCCCCCN(CCCCN)c1cccc2c1CN(C1CCC(=O)NC1=O)C2=O (centres unmarked) , write its reported Dmax. > 75%

Given the molecule NCCCCCN(CCCCN)c1cccc2c1CN(C1CCC(=O)NC1=O)C2=O (centres unmarked) [Compound 55, dihydrochloride] , write its reported Dmax. > 75%

Given the molecule CCCCN(C/C=C/CN)c1cccc2c1CN(C1CCC(=O)NC1=O)C2=O (centres unmarked) , write its reported Dmax. 50 to 7500%

* * *

Tested on: MV-4-11 cells
Assay: AML cell viability assay (RealTime-Glo)
Assay type: cell-based
Settings: Homo sapiens, MV4-11; IC50 class; MV-4-11 cells, RealTime-Glo after 44 hrs of treatment (TABLE 5); read-out: Cell viability classification
recorded_endpoint: IC50

Given the compound CC1(C)CC(CN(c2cccc3c2CN(C2CCC(=O)NC2=O)C3=O)[C@H]2CC[C@H](NCCC(F)(F)F)CC2)C1 (stereo partly shown) [Compound 652] , write its reported IC50. > 1000 nM

Given the compound CC1(C)CC(CN(c2cccc3c2CN(C2CCC(=O)NC2=O)C3=O)[C@H]2CC[C@H](NCCC(F)(F)F)CC2)C1 (single isomer, unassigned) [Compound 652A] , write its reported IC50. > 1000 nM

Given the compound O=C1CCC(N2Cc3c(cccc3N(CCC3CC3)[C@H]3CC[C@H](NCCCC(F)(F)F)CC3)C2=O)C(=O)N1 (stereo partly shown) , write its reported IC50. < 100 nM

Given the compound O=C1CCC(N2Cc3c(cccc3N(CCC3CC3)[C@H]3CC[C@@H](CNCCC(F)(F)F)CC3)C2=O)C(=O)N1 (stereo partly shown) [Compound 708A] , write its reported IC50. < 100 nM

Given the compound O=C1CCC(N2Cc3c(cccc3N(CCC3CC3)[C@H]3CC[C@H](NC45CC(C(F)(F)F)(C4)C5)CC3)C2=O)C(=O)N1 (stereo partly shown) , write its reported IC50. 100 to 1000 nM

Given the compound O=C1CCC(N2Cc3c(cccc3N(CC3CC3)[C@H]3CC[C@H](NCC4(C(F)(F)F)CC4)CC3)C2=O)C(=O)N1 (stereo partly shown) , write its reported IC50. 100 to 1000 nM

Given the compound O=C1CCC(N2Cc3c(cccc3N(CCC3CC3)[C@H]3CC[C@H](NCc4ccccn4)CC3)C2=O)C(=O)N1 (stereo partly shown) , write its reported IC50. 100 to 1000 nM

Given the compound CCCN(c1cccc2c1CN(C1CCC(=O)NC1=O)C2=O)[C@H]1CC[C@H](NCCC(F)(F)F)CC1 (stereo partly shown) , write its reported IC50. < 100 nM

Given the compound CN(CCC(F)F)[C@H]1CC[C@H](N(CCC2CC2)c2cccc3c2CN(C2CCC(=O)NC2=O)C3=O)CC1 (stereo partly shown) , write its reported IC50. < 100 nM

Given the compound O=C1CCC(N2Cc3c(cccc3N(CCC3CC3)[C@H]3CC[C@H](N[C@H]4CC[C@@H]4C(F)(F)F)CC3)C2=O)C(=O)N1 (stereo partly shown) , write its reported IC50. 100 to 1000 nM

* * *

Please respond with reported Dmax at 0.316 µM for every item in the list.
Target: CK1α (Homo sapiens, UniProt P48729+Q96SW2)
Assay: CK1α degradation, flow cytometry in MV4-11 cells
Type: cell-based
Parameters: CK1α levels were determined in MV-4-11 cells using Jess (Protein Simple); host or cells: MV-4-11
Settings: % reduction of CK1α compared to DMSO, MV4-11 cells at 316 nM for 16 hours, read-out: CK1α degradation classification
Counter-ions that a name gives are not always drawn.

Given the compound C[C@@H](N[C@H]1CC[C@H](N(CCC2CC2)c2cccc3c2CN(C2CCC(=O)NC2=O)C3=O)CC1)C(F)(F)F (some centres unmarked) , write its reported Dmax at 0.316 µM. < 50%

Given the compound O=C1CCC(N2Cc3c(cccc3N(CCCC(F)(F)F)[C@H]3CC[C@H](NC4COC4)CC3)C2=O)C(=O)N1 (some centres unmarked) , write its reported Dmax at 0.316 µM. 50 to 75%

Given the compound N[C@H]1CC[C@H](N(CCC2CC2)c2cccc3c2CN(C2CCC(=O)NC2=O)C3=O)CC1 (some centres unmarked) [Compound 237, HCl] , write its reported Dmax at 0.316 µM. > 75%

Given the compound CCCCCN(c1cccc2c1CN(C1CCC(=O)NC1=O)C2=O)[C@H]1CC[C@H](NCC2CC2)CC1 (some centres unmarked) [Compound 313, hydrochloride] , write its reported Dmax at 0.316 µM. > 75%

Given the compound N[C@@H]1CC[C@@H](N(CCC2CC2)c2cccc3c2CN(C2CCC(=O)NC2=O)C3=O)C[C@H]1F (some centres unmarked) , write its reported Dmax at 0.316 µM. > 75%

* * *

Target: CK1α (Homo sapiens, UniProt P48729+Q96SW2)
Test: CK1α degradation, flow cytometry in MV4-11 cells
Format: cell-based
Set-up: CK1α levels were determined in MV-4-11 cells using Jess (Protein Simple); host or cells: MV-4-11
Conditions: % reduction of CK1α compared to DMSO, MV4-11 cells at 316 nM for 16 hours, read-out: CK1α degradation classification
Counter-ions that a name gives are not always drawn.
Please respond with reported Dmax at 0.316 µM for every item in the list.

Specify Dmax at 0.316 µM for CC(C)(C)CCN(CCCCN)c1cccc2c1CN(C1CCC(=O)NC1=O)C2=O (centres unmarked) [Compound 223] , system CK1α (Homo sapiens, UniProt P48729+Q96SW2). > 75%

Specify Dmax at 0.316 µM for CC(C)CCN(c1cccc2c1CN(C1CCC(=O)NC1=O)C2=O)[C@H]1CC[C@H](N)CC1 (some centres unmarked) [Compound 238, hydrochloride] , system CK1α (Homo sapiens, UniProt P48729+Q96SW2). > 75%

Specify Dmax at 0.316 µM for O=C1CCC(N2Cc3c(cccc3N(CCC3CC3)[C@H]3CC[C@H](NC4CC(F)(F)C4)CC3)C2=O)C(=O)N1 (some centres unmarked) [Compound 515] , system CK1α (Homo sapiens, UniProt P48729+Q96SW2). 50 to 75%

Specify Dmax at 0.316 µM for CCCCCN(c1cccc2c1CN(C1CCC(=O)NC1=O)C2=O)[C@H]1CC[C@H](NCC)CC1 (some centres unmarked) [Compound 309, HCl] , system CK1α (Homo sapiens, UniProt P48729+Q96SW2). > 75%

Specify Dmax at 0.316 µM for CCCCCN(c1cccc2c1CN(C1CCC(=O)NC1=O)C2=O)[C@H]1CCC[C@@H](CN)C1 (some centres unmarked) [Compound 330, HCl] , system CK1α (Homo sapiens, UniProt P48729+Q96SW2). > 75%

Specify Dmax at 0.316 µM for O=C1CCC(N2Cc3c(cccc3N(CCCC(F)(F)F)[C@H]3CC[C@H](NC4CC(F)(F)C4)CC3)C2=O)C(=O)N1 (some centres unmarked) [Compound 512] , system CK1α (Homo sapiens, UniProt P48729+Q96SW2). 50 to 75%

Specify Dmax at 0.316 µM for CCCCCN(c1cccc2c1CN(C1CCC(=O)NC1=O)C2=O)[C@H]1CC[C@H](NCCC)CC1 (some centres unmarked) [Compound 312, HCl] , system CK1α (Homo sapiens, UniProt P48729+Q96SW2). > 75%

Specify Dmax at 0.316 µM for NCC(CCN(CCC1CC1)c1cccc2c1CN(C1CCC(=O)NC1=O)C2=O)C(F)(F)F (centres unmarked) [Compound 519] , system CK1α (Homo sapiens, UniProt P48729+Q96SW2). 50 to 75%
